Assay: self-splicing fitness, log relative to wild type (ln ratio); higher = more splicing; Tetrahymena group I intron in knt gene, E. coli kanamycin selection, DiMSum; sequences stand for … in CUCUCU…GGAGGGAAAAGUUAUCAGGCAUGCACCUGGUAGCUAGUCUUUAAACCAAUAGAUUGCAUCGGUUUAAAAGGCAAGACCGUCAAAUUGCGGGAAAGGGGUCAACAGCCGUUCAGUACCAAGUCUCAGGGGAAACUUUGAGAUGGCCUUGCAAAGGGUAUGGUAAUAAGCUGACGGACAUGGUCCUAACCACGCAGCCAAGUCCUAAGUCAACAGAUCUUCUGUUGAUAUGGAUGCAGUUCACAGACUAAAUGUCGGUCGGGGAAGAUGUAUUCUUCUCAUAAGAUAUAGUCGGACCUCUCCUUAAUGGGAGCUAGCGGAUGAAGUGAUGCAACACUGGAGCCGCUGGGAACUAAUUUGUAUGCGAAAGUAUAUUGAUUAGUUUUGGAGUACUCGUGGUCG;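 further: selection with 25 µg/mL kanamycin versus none on LB agar overnight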
Conditions: 37 °C
readout-name: self-splicing fitness (ln)

{"columns": ["seq-text", "value-observed"],
 "data": [
  ["GGAAAGCAAUAUUACGUUGU", -2.19],
  ["CAGGAGCAAUAUUACGUCUU", -2.16],
  ["GCGAAGCAAUAUUACGUACG", -2.24],
  ["UAACAGCAAUAUUACGCUGC", -1.92],
  ["UCCUAGCAAUAUUACGCGUG", -2.75],
  ["GGGAAGCAAUAUUACGCAUA", -1.25],
  ["UAGAAGCAAUAUUACGCAAU", -1.04],
  ["ACUAAGCAAUAUUACGCAUG", -0.766],
  ["UCGUAGCAAUAUUACGUUCU", -1.49],
  ["CGUAAGCAAUAUUACGCGCG", -1.71],
  ["CACUAGCAAUAUUACGGGGC", -2.23],
  ["UAUAAGCAAUAUUACGUCGU", -1.69],
  ["UAUGAGCAAUAUUACGGAUG", -1.64],
  ["CAUUAGCAAUAUUACGUCAC", -1.63],
  ["ACACAGCAAUAUUACGCGAC", -2.15],
  ["CCACAGCAAUAUUACGUGCG", -1.72],
  ["CCAAAGCAAUAUUACGUGAG", 0.0847],
  ["CCUGAGCAAUAUUACGCUUU", -3.14],
  ["UGUCAGCAAUAUUACGAACU", -0.0942],
  ["UGCUAGCAAUAUUACGAUAA", -0.358],
  ["GGUUAGCAAUAUUACGUAGC", -1.97],
  ["CUCCAGCAAUAUUACGGUCC", -2.83],
  ["GCCUAGCAAUAUUACGACUA", -1.93],
  ["CACAAGCAAUAUUACGUAUG", -1.08],
  ["CGGUAGCAAUAUUACGGCUU", 0.239],
  ["AUUGAGCAAUAUUACGAGUU", -2.23],
  ["UGACAGCAAUAUUACGAAAA", -1.29],
  ["GUCGAGCAAUAUUACGACAG", -1.75],
  ["AUAUAGCAAUAUUACGAGUA", -1.04],
  ["AAUCAGCAAUAUUACGCAGG", 0.11],
  ["GUACAGCAAUAUUACGAGUU", -1.36],
  ["GUCUAGCAAUAUUACGUCGC", 0.215],
  ["GGUCAGCAAUAUUACGAAAG", -1.22],
  ["GGGCAGCAAUAUUACGCGGU", -1.77],
  ["UAUGAGCAAUAUUACGGUCU", -2.96],
  ["UAUUAGCAAUAUUACGUCGG", -0.795],
  ["AGGGAGCAAUAUUACGGCGU", -1.05],
  ["CUUUAGCAAUAUUACGGUCG", -0.259],
  ["GACAAGCAAUAUUACGGGUA", -0.82],
  ["CAGUAGCAAUAUUACGUAGC", -3.18],
  ["CAAAAGCAAUAUUACGCGGG", -1.87],
  ["CAAGAGCAAUAUUACGGGCA", -1.79]
]}
